- tested-system: AeSCP-2 W44E mutant (Aedes aegypti, UniProt Q86PR3, W44E)
- test-method-notes: NBD-cholesterol binding to recombinant AeSCP-2 mutant
- study-conditions: W44E; 0.5 µM NBD-cholesterol, protein 0.01 to 10 µM; mean (standard deviation)
measured-property: Kd (µM)

| compound | tested-system | measured-property | quantity-unit | reading |
| --- | --- | --- | --- | --- |
| C[C@H](CNc1ccc([N+](=O)[O-])c2nonc12)[C@H]1CC[C@H]2[C@@H]3CC=C4C[C@@H](O)CC[C@]4(C)[C@H]3CC[C@]12C [NBD-cholesterol] | AeSCP-2 W44E mutant (Aedes aegypti, UniProt Q86PR3, W44E) | Kd | µM | 4.2 |
